Please respond with reported hOX2R_Ipone max %act for every item in the list.
molecular target: hOX2R (Homo sapiens, UniProt O43614); construct: expressed in transfected cells; host or cells: CHO cells (G418 selection); experiment: hOX2R IPone assay (orexin receptor agonism); format: cell-based; conditions: maximal activation, IPone readout
Please respond with the number in % and leave the unit unwritten.

The reported hOX2R_Ipone max %act of the molecule CCN1C(=O)NC(CCC(F)(F)F)CC(C)CCOc2nc(cn3ccnc23)-c2cccc(c2)[C@H]1C (single isomer, unassigned) [Example 48A] was 99.4

Field hOX2R_Ipone max %act (entry CCN1C(=O)NCC(C(F)(F)F)N(C)CCCOc2nc(cn3ccnc23)-c2cccc(c2)C1C (stereo not shown) [Example 26A] ) reads 99.4

Reported hOX2R_Ipone max %act of `CCN1C(=O)N[C@@H](CC(F)(F)F)CCCCCOc2nc(nn3ccnc23)-c2cc(cnc2OC)[C@H]1C` : 95.9

The reported hOX2R_Ipone max %act of the molecule CCN1C(=O)NC(CC2CCC2)CCCCCOc2nc(cn3ccnc23)-c2cc(ncc2OC)[C@H]1C (single isomer, unassigned) [Example 61B] was 100.9

# hOX2R_Ipone max %act of CCN1C(=O)NC(COCC(F)(F)F)CCCCCOc2nc(cn3ccnc23)-c2cc(ncc2OC)[C@H]1C (stereo partly shown) = 100.6

The recorded hOX2R_Ipone max %act for CCN1C(=O)N[C@@H](CCC(F)(F)F)CCCCCOc2cc(cc3ccnn23)-c2nc(cnc2OC)C1C (single isomer, unassigned) [Example 80A] is 98.9

Memo: `CCN1C(=O)N[C@@H](CCC(F)F)CCOCCOc2nc(nn3ccnc23)-c2cc(ncc2F)[C@H]1C` , reported hOX2R_Ipone max %act: 100.1

So, CCN1C(=O)NC(c2nc(C)cs2)CCCCCOc2nc(cn3ccnc23)-c2cc(ncc2OC)[C@H]1C (stereo partly shown) ? Its hOX2R_Ipone max %act was 102.4

In plain terms, CCN1C(=O)N[C@@H](CCC(F)(F)F)CCCCCOc2nc(cc3ccnn23)-c2cc(ncc2OC)C1C (single isomer, unassigned) [Example 88A] has a documented hOX2R_Ipone max %act of 100.2

// sample CCN1C(=O)NC(CCOC(F)(F)F)CCCCCOc2nc(cn3ccnc23)-c2cc(ncc2OC)[C@H]1C (single isomer, unassigned) [Example 73A] , its hOX2R_Ipone max %act was 100.6

Briefly, hOX2R_Ipone max %act measured for CCN1C(=O)NC(CCC(F)F)CCCCCOc2nc(cn3ccnc23)-c2cc(ncc2OC)[C@H]1C(F)(F)F (stereo partly shown) : 101.8

// recorded hOX2R_Ipone max %act for CCN1C(=O)NC(CCC(F)(F)F)CCOCCOc2cn3ncnc3c(n2)-c2ccnc(c2)C1C (stereo not shown) : 101.7

What the record says about CCN1C(=O)NC(CCC(F)(F)F)COCCCOc2nc(cn3ccnc23)-c2cc(ncc2OC)[C@H]1C (single isomer, unassigned) [Example 21A] : hOX2R_Ipone max %act is 100.4

====

Biological target: hOX2R (Homo sapiens)
Sequence (O43614 1-444): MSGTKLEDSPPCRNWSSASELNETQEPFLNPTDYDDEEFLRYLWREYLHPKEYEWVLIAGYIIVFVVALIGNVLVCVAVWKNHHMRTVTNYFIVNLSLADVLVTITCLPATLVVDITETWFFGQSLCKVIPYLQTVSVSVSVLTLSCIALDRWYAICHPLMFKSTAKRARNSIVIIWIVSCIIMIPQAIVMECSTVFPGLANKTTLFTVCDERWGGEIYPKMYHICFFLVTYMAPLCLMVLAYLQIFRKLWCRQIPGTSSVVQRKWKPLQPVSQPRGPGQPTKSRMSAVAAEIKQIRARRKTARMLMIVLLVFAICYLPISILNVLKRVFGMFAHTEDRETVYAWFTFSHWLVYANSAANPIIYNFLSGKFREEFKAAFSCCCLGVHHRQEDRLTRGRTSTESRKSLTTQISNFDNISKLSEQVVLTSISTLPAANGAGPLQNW
Assay: hOX2R IPone assay (orexin receptor agonism)
Conditions: orexin receptor agonist, IPone readout; read-out: hOX2R_IPone EC50
So I've got a bunch of molecules here, and I need their pEC50 values.
The scale used: pEC50 is minus the common logarithm of the concentration in molar units.

Reported pEC50 ( CCCC1CCCCCOc2nc(cn3ccnc23)-c2cc(ncc2OC)[C@@H](C)N(CC)C(=O)N1 (single isomer, unassigned) [Example 54A] ) = 6.85

Notebook: `CCN1C(=O)N[C@@H](CCC(C)(F)F)CCOCCOc2nc(cc3c(C)cnn23)-c2cc(ncc2OC)[C@H]1C` , pEC50 read as 8.84

Reported pEC50 for CCN1C(=O)NC(CCC(F)F)CCCCCOc2cc(nn3ccnc23)-c2cc(ncc2F)[C@H]1C (stereo partly drawn) was 8.68

So for `CCN1C(=O)N[C@@H](CCC(F)(F)F)CCCCCOc2cc(nn3ccnc23)-c2cc(cnc2OC)[C@H]1C` , the logged pEC50 turned out to be 8.19

The molecule CCN1C(=O)NC(CCC(F)F)CCCCCOc2nc(cn3ncnc23)-c2cc(ncc2C)[C@H]1C (stereo partly drawn) showed pEC50 equal to 8.43

Record CCN1C(=O)N[C@@H](CCC(F)(F)F)CCCCCOc2nc(cn3ccnc23)-c2cc(ccn2)[C@@H]1C [Example 113A] . Reported pEC50: 6.98

The reported value for CCN1C(=O)NC(C2CC2)CCCCCOc2nc(cn3ccnc23)-c2cc(ncc2OC)[C@H]1C (single isomer, unassigned) [Example 57B] in terms of pEC50 is 8.92

So for `CCN1C(=O)N[C@@H](CCC(F)(F)F)CCCCCOc2nc(cn3ccnc23)-c2ccnc(c2)C1(C)C` , the logged pEC50 turned out to be 6.57

Lookup result for `CCN1C(=O)N[C@@H](CCC(F)(F)F)CCCCCOc2cc(cc3ccnn23)-c2cc(nnc2OC)[C@H]1C` ; measured pEC50: 8.85

So for CCN1C(=O)NC(COC(C)C)CCCCCOc2nc(cn3ccnc23)-c2cc(ncc2OC)[C@H]1C (stereo partly drawn) , the logged pEC50 turned out to be 8.69

In plain terms, `CCN1C(=O)N[C@@H](CCC(F)(F)F)CCCCCOc2cc(cc3cccnc23)-c2cc(ncc2OC)[C@H]1C` has a documented pEC50 of 8.57

Noted for CCN1C(=O)N[C@@H](CCC(F)(F)F)CCCCOc2nc(cn3ncnc23)-c2cc(ncc2OC)C1C(F)(F)F (single isomer, unassigned) [Example 34B] : its pEC50 reads 7.79

The molecule CCN1C(=O)NC(CCC(C)F)CCCCCOc2nc(cn3ccnc23)-c2cc(ncc2OC)[C@H]1C (single isomer, unassigned) [Example 72A] showed pEC50 equal to 8.25

Item: `CCN1C(=O)N[C@@H](CCC(C)(F)F)CCOCCOc2nc(nn3ccnc23)-c2cc(ncc2OC)[C@H]1C` | pEC50: 9.13

// CCN1C(=O)N[C@@H](CCC(F)(F)F)C/C=C\COc2nc(cn3ncnc23)-c2cc(ncc2OC)C1C(F)(F)F (stereo partly drawn) : pEC50 value = 6.47

Recorded pEC50 (molecule CCN1C(=O)N[C@@H](CCC(F)(F)F)CCCCCOc2cc(cn3ccnc23)-c2cc(ncn2)C1C (single isomer, unassigned) [Example 96B] ): 8.54

Measured pEC50, CCC1CCCCCOc2nc(cn3ccnc23)-c2cc(ncc2OC)[C@@H](C)N(CC)C(=O)N1 (single isomer, unassigned) [Example 52A] : 6.26

# pEC50 (molecule: `CCN1C(=O)N[C@@H](CCC(F)(F)F)CCCCCOc2nc(cn3ncnc23)-c2nc(ncc2OC)[C@H]1C` ) is 8.43

The reported pEC50 of the molecule CCN1C(=O)NC(c2cscn2)CCCCCOc2nc(cn3ccnc23)-c2cccc(c2)[C@H]1C (single isomer, unassigned) [Example 19B] was 8.18

CCN1C(=O)NC(CCOC(F)(F)F)CCCCCOc2nc(cn3ccnc23)-c2cc(ncc2OC)[C@H]1C (single isomer, unassigned) [Example 73B] has a reported pEC50 of 9.10

// pEC50 lookup, molecule = CCN1C(=O)N[C@@H](CCC(F)(F)F)CCCCCOc2nc(cn3ccnc23)-c2nc(ncc2OC)[C@@H]1C [Example 117A] , result: 7.59

In plain terms, CCN1C(=O)NC(C(C)(C)C)CCCCCOc2nc(cn3ccnc23)-c2cc(ncc2OC)[C@H]1C (single isomer, unassigned) [Example 63B] has a documented pEC50 of 8.29

// pEC50 value for `CCN1C(=O)N[C@@H](CCC(F)(F)F)CCCCCOc2cc(nn3ccnc23)-c2cc(ncc2OC)[C@H]1C` : 8.95

The molecule listed as CCN1C(=O)NC(CC(C)(F)F)CCCCCOc2cn3ccnc3c(n2)-c2cc(ncc2OC)C1C (stereo not drawn) shows pEC50 equal to 9.29

The molecule identified as `CCN1C(=O)NCc2nc(cs2)CCOc2nc(cn3ccnc23)-c2cccc(c2)[C@H]1C` registered its pEC50 at 7.08

Form: molecule = CCN1C(=O)N[C@@H](CCC(F)(F)F)CCCCCOc2nc(cn3ccnc23)-c2cc(C)nc(c2)[C@@H]1C [Example 107A] ; pEC50 = 6.78

Documented pEC50 of CCN1C(=O)NC(C)CCCCCOc2nc(cn3ccnc23)-c2cc(ncc2OC)[C@H]1C (single isomer, unassigned) [Example 9A] : 6.38
